Just for reference, ChEMBL document CHEMBL4390646 is where these values come from.

The following compounds are listed with their measured ΔTm values.
Test system: Mycobacterium tuberculosis
Assay: Binding affinity to recombinant Mycobacterium tuberculosis EthR2 assessed as change in melting temperature at 1 mM by Nano Orange dye based fluorescence thermal shift assay
Returns: string containing the numeric result and its unit.

Example entries begin here.
CCCNC(=O)Nc1cccc(C)n1
2.2 °C
N=C(N)Nc1nc2ccccc2s1
2.8 °C
O=C1CC2CCC(C1)N2CCc1ccc(Cl)cc1
3.4 °C

Request: Could you share what ΔTm was measured for Clc1cccc(CN2CCNCC2)c1 , tested on Mycobacterium tuberculosis?
Response: 3.1 °C

Request: Report ΔTm for CC(C)Sc1nc2[nH]cnc(N)c-2n1 tested on Mycobacterium tuberculosis.
Response: 2.5 °C
